# Test system: SEM cells
# assay-procedure: cell viability relative to DMSO control; higher = less cytotoxic
# particulars: HPLM + 10% dialyzed FBS; 48 h; 0.000781 µM
Hi there, I'd appreciate the recorded cell viability for every entry that follows.
Give bare numbers, in %.

For each of the items listed, what is its cell viability?
1. N[C@H]2CN(CC12CC1)c3c(F)cc4c(c3Cl)[N@@](C=C(C4=O)C(=O)O)C5C[C@H]5F (some centres undefined)
2. CCC(C)N1\N=C/N(C1=O)C2=CC=C(C=C2)N3CCN(CC3)C4=CC=C(OC[C@H]5CO[C@@](C[N]6C=NC=N6)(O5)C7=CC=C(Cl)C=C7Cl)C=C4 (some centres undefined)
3. c1ccc2c(Cc3c[nH]c4ccccc34)c[nH]c2c1
4. O=C(CS(=O)Cc1ccco1)NC/C=C\COc1cc(CN2CCCCC2)ccn1 (centres undefined)

A)
1. 90.7
2. 94.1
3. 93.8
4. 78.7
